Target: Vhr1 (UniProt P40522)
Sequence: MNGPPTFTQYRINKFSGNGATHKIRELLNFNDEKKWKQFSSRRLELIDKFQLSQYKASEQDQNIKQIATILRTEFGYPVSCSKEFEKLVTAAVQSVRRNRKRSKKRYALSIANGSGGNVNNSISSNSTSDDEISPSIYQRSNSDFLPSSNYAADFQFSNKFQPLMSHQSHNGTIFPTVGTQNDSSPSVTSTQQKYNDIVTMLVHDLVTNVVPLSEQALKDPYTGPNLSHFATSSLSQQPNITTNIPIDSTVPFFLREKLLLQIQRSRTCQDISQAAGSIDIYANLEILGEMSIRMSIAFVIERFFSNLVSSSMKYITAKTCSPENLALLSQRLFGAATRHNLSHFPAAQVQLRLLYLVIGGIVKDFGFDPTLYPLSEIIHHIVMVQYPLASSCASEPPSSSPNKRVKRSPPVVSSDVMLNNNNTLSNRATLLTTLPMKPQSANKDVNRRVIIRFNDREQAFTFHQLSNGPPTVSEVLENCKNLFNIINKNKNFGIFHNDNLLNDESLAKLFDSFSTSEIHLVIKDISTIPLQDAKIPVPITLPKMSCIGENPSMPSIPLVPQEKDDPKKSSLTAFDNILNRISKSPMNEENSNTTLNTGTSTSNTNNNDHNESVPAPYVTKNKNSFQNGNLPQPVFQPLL
Test: PBM E-score (8-mer binding enrichment) (E-score (-0.5 to 0.5)); higher = stronger / more preferred TF binding
Details: protein concentration: 200 nM; construct: GST-full length
Over roughly 33,000 sequences, “E-score (-0.5 to 0.5)” has its median near -0.012; the highest 2% begin near 0.27. Only a selection was taken, and the highest values are over-represented in it overall.
Would you mind labelling by PBM E-score? At or over 0.008 is Condition met, under is Condition not met.

Solved cases (10 shown):
seq_text=ACTCCGAT assigned_label="Condition met"
seq_text=AGGGAGTC assigned_label="Condition met"
seq_text=CCTCCGAC assigned_label="Condition not met"
seq_text=GGGCTTGA assigned_label="Condition not met"
seq_text=AGCACTGG assigned_label="Condition not met"
seq_text=TCAATTGA assigned_label="Condition not met"
seq_text=CGGGAGTA assigned_label="Condition not met"
seq_text=CGTGAAAC assigned_label="Condition not met"
seq_text=CAGTATCC assigned_label="Condition met"
seq_text=CACTCCGC assigned_label="Condition met"

For this sequence, is measured PBM E-score 0.008 or higher? TAGTCATA
Condition met

Thanks! And ACTCCGAA ?
Condition met

How about CCGCAGTC ?
Condition met

Cool, now AAGTCATA
Condition met

Entry to check: CTACGCCC
Condition met

And ACTGGTCG ?
Condition met

For CGGGAGTC then?
Condition met

Now the same for ACTCCGAC
Condition met

And the next one, CCAGACGC ?
Condition not met

Ok, now TACTCCGA
Condition met

Same read-out for AATGATAA ?
Condition met
